Attribution: ChEMBL document CHEMBL4364340

System: GTPase KRas (Homo sapiens), P01116 [G12C]
Assay: Inhibition of KRAS G12C mutant (unknown origin) at 10 uM incubated for 2 hrs in presence of GDP by rapidfire mass spectrometry analysis relative to control
inhibition for assorted compounds
# number only, unit % dropped from output

Solved entries:
Compound	Measured on	Units symbol	inhibition
C=CC(=O)N1CC(NC(=O)Cn2cc(C(=O)N3CCc4c(Cl)cccc4C3)c3cc(Br)ccc32)C1	GTPase KRas (Homo sapiens), P01116 [G12C]	%	100
C=CC(=O)N1CC(NC(=O)Cn2cc(C(=O)N3CCc4cc(Cl)ccc4C3)c3cc(Br)ccc32)C1	GTPase KRas (Homo sapiens), P01116 [G12C]	%	100
C=CC(=O)N1CC(NC(=O)Cn2cc(C(=O)N3CCc4ccccc4C3)c3cc(Br)ccc32)C1	GTPase KRas (Homo sapiens), P01116 [G12C]	%	100
C=CC(=O)N1CC(NC(=O)Cn2cc(C(=O)NCCc3ccccc3)c3cc(Br)ccc32)C1	GTPase KRas (Homo sapiens), P01116 [G12C]	%	59
C=CC(=O)N1CC(NC(=O)Cn2cc(C(=O)N(C)Cc3ccccc3)c3cc(Br)ccc32)C1	GTPase KRas (Homo sapiens), P01116 [G12C]	%	35
C=CC(=O)N1CC(NC(=O)Cn2c(C3CC3)c(C(=O)N3CCc4c(cccc4OC)C3)c3cc(Cl)cc(C)c32)C1	GTPase KRas (Homo sapiens), P01116 [G12C]	%	100
C=CC(=O)N1CC(NC(=O)Cn2c(C3CC3)c(C(=O)N3CCc4c(cccc4OC)C3)c3cc(Br)ccc32)C1	GTPase KRas (Homo sapiens), P01116 [G12C]	%	100

Next item in the queue.
Problem: Looking for the measured inhibition of C=CC(=O)N1CC(NC(=O)COc2ccc(Br)cc2NC(=O)c2cc(C)no2)C1 , can you help?
Result: 11

###

Test: Intrinsic clearance in human liver microsomes at 1 uM measured after 30 mins in presence of NADPH by LC-MS analysis
Format: ADME, Microsome
Details: read-out: CLH
Measured parameter: microsomal CLint at 1 µM (µL/min/mg)
Express the result in µL/min/mg but write the number alone.

Problem: Any idea what microsomal CLint at 1 µM was measured for C=CC(=O)N1CC(NC(=O)Cn2c(C3CC3)c(C(=O)N3CCc4c(cccc4OC)C3)c3cc(Cl)cc(C)c32)C1 ?
Result: 161

###

Assay: Oral bioavailability in mouse at 10 mg/kg
Type: ADME, organism-based
Details: in vivo
Measured parameter: bioavailability (%)
// units = %; emit number, no label

Problem: What value of measured bioavailability is listed for C=CC(=O)N1CC(NC(=O)Cn2c(C3CC3)c(C(=O)N3CCc4c(cccc4OC)C3)c3cc(Cl)cc(C)c32)C1 ?
Result: 8

###

Experiment: Intrinsic clearance in mouse liver microsomes at 1 uM measured after 30 mins in presence of NADPH by LC-MS analysis
Assay type: ADME, Microsome
Settings: read-out: CLH
Measured parameter: microsomal CLint at 1 µM (µL/min/mg)
Answer with a number only, understood to be in µL/min/mg.

Problem: What value of measured microsomal CLint at 1 µM is listed for C=CC(=O)N1CC(NC(=O)Cn2c(C3CC3)c(C(=O)N3CCc4c(cccc4OC)C3)c3cc(Cl)cc(C)c32)C1 ?
Result: 708

###

In this section we review reported IC50 values for a set of compounds.
Biological target: GTPase KRas (Homo sapiens, UniProt P01116, C118A/G12C)
Experiment: Inhibition of GDP bound N terminal His-tagged KRAS G12C/C118A mutant (unknown origin) (1 to 169 residues) assessed as reduction in SOS-mediated guanine nucleotide exchange preincubated for 2 hrs followed by addition of SOS and GTP and measured after 1 hr by alphascreen assay

Compound	IC50
C=CC(=O)N1CC(NC(=O)COc2ccc(Br)cc2C(=O)N2CC=C(c3ccccc3)C2)C1	2.78 µM

# context switch: different compound, same IC50
Problem: Lookup: IC50 / GTPase KRas (Homo sapiens, UniProt P01116, C118A/G12C) / C=CC(=O)N1CC(NC(=O)Cn2ccc3cc(Br)ccc32)C1
Result: > 250 µM

###

Assay: Clearance in rat at […]
Format: ADME, organism-based
Details: in vivo
Measured parameter: CL/F (mL/min/kg)
Give a bare numeral; the unit mL/min/kg is implied.

Problem: # CL/F lookup, item C=CC(=O)N1CC(NC(=O)Cn2c(C3CC3)c(C(=O)N3CCc4c(cccc4OC)C3)c3cc(Cl)cc(C)c32)C1
Result: 65

###

System: GTPase KRas (Homo sapiens), P01116 [G12C]
Test: Inhibition of KRAS G12C mutant (unknown origin) at 10 uM incubated for 2 hrs in presence of GDP by rapidfire mass spectrometry analysis relative to control
Parameter: inhibition. Scope: all listed entries.
Please state the figure in %; there is no need to write the unit.

Known inhibition results, listed for orientation:
Compound	inhibition [%]
C=CC(=O)N1CC(NC(=O)Cn2c(C)c(C(=O)N3CCc4c(cccc4OC)C3)c3cc(Cl)cc(C)c32)C1	100
C=CC(=O)N1CC(NC(=O)Cn2c(C)c(C(=O)N3CCc4c(cccc4OC)C3)c3cc(Br)ccc32)C1	100
C=CC(=O)N1CC(NC(=O)Cn2cc(C(=O)N3CCc4c(cccc4OC)C3)c3cc(Br)cc(C)c32)C1	100
C=CC(=O)N1CC(NC(=O)Cn2cc(C(=O)NCc3ccccc3)c3cc(Br)ccc32)C1	29
C=CC(=O)N1CC(NC(=O)Cn2cc(C(=O)N3CCc4c(F)cccc4C3)c3cc(Br)ccc32)C1	100

Problem: Name the recorded inhibition for C=CC(=O)N1CC(NC(=O)Cn2c(C)c(C(=O)N3CCc4c(cccc4OC)C3)c3cc(Br)cc(C)c32)C1 .
Result: 100

Problem: # lookup: inhibition of C=CC(=O)N1CC(NC(=O)Cn2ccc3cc(Br)ccc32)C1
Result: 14

Problem: Name the reported inhibition value associated with the compound C=CC(=O)N1CC(NC(=O)Cn2cc(C(=O)N3CCc4cc(F)ccc4C3)c3cc(Br)ccc32)C1
Result: 100

Problem: Can you look up the measured inhibition of C=CC(=O)N1CC(NC(=O)Cn2cc(C(=O)N3CCc4c(cccc4OC)C3)c3cc(Br)ccc32)C1 for me?
Result: 100

Problem: I'd like to know its inhibition. The compound in question is C=CC(=O)N1CC(NC(=O)Cn2c(C)c(C(=O)N3CCc4c(cccc4OC)C3)c3cc(Cl)ccc32)C1
Result: 100

###

Test: Plasma protein binding in rat assessed as unbound fraction at 5 uM by ultracentrifugation method
Type: ADME, cell-free
Measured parameter: fraction unbound at 5 µM
Keep the answer to the number alone.

Problem: Need fraction unbound at 5 µM of C=CC(=O)N1CC(NC(=O)Cn2c(C3CC3)c(C(=O)N3CCc4c(cccc4OC)C3)c3cc(Cl)cc(C)c32)C1 , thanks.
Result: 0.02

###

Tested on: GTPase KRas (Homo sapiens), P01116 [G12C]
Experiment: Inhibition of KRAS G12C mutant (unknown origin) at 10 uM incubated for 20 hrs in presence of GDP by rapidfire mass spectrometry analysis relative to control
# inhibition per record follows
// note: answer is a bare numeric in %

Compound	Measured on	Measured parameter	Reported value
C=CC(=O)N1CC(NC(=O)Cn2cc(C(=O)NCCc3ccccc3)c3cc(Br)ccc32)C1	GTPase KRas (Homo sapiens), P01116 [G12C]	inhibition	100

Problem: Consider the molecule shown here: C=CC(=O)N1CC(NC(=O)Cn2cc(C(=O)N3CCc4c(F)cccc4C3)c3cc(Br)ccc32)C1 What is its recorded inhibition?
Result: 100

Problem: Please give the measured inhibition for this molecule: C=CC(=O)N1CC(NC(=O)Cn2c(C3CC3)c(C(=O)N3CCc4c(cccc4OC)C3)c3cc(Cl)cc(C)c32)C1
Result: 100

Problem: Need inhibition of C=CC(=O)N1CC(NC(=O)Cn2c(C)c(C(=O)N3CCc4c(cccc4OC)C3)c3cc(Cl)cc(C)c32)C1 , thanks.
Result: 100

Problem: inhibition lookup needed for C=CC(=O)N1CC(NC(=O)Cn2cc(C(=O)N3CCc4c(cccc4OC)C3)c3cc(Br)ccc32)C1 , thanks.
Result: 100

Problem: Recorded inhibition for C=CC(=O)N1CC(NC(=O)Cn2cc(C(=O)N3CCc4c(cccc4OC)C3)c3cc(Br)cc(C)c32)C1 , please?
Result: 100

Problem: Form field: reported inhibition of C=CC(=O)N1CC(NC(=O)Cn2cc(C(=O)N3CCc4c(Cl)cccc4C3)c3cc(Br)ccc32)C1
Result: 100

Problem: Item under review: C=CC(=O)N1CC(NC(=O)Cn2c(C)c(C(=O)N3CCc4c(cccc4OC)C3)c3cc(Br)ccc32)C1 . Reported inhibition?
Result: 100

Problem: Could you share which inhibition value was measured for C=CC(=O)N1CC(NC(=O)COc2ccc(Br)cc2NC(=O)c2cc(C)no2)C1 ?
Result: 63

Problem: Entry under review: C=CC(=O)N1CC(NC(=O)Cn2cc(C(=O)N3CCc4cc(F)ccc4C3)c3cc(Br)ccc32)C1 . Reported inhibition?
Result: 100

Problem: Fill in the blank: the reported inhibition of C=CC(=O)N1CC(NC(=O)Cn2ccc3cc(Br)ccc32)C1 is ____.
Result: 67
